- measurement notes: Biodistribution in BxPC3-luc tumor-bearing mice
- Assay type: in vivo, BALB/c nu/nu mice
- condition context: female, BALB/c nu/nu, mouse, iv, 74 kBq, total radioactivity; 1 h post-injection, i.v.; BxPC3-luc tumor; read-out: Biodistribution, Tumor
Where a SMILES comes first, the peptide text is derived from it. The star is where a group is joined. DOTA = O=C(O)CN1CCN(CC(=O)O)CCN(CC(=O)*)CCN(CC(=O)O)CC1; AEEA = NCCOCCOCC(=O)O
readout label: tissue uptake at 1 h

INSERT INTO results (molecule, value_observed) VALUES
  ('CC[C@H](C)[C@H](NC(=O)COCCOCCNC(=O)CN1CCN(CC(=O)O)CCN(CC(=O)O)CCN(CC(=O)O)CC1)C(=O)N1CCC[C@H]1C(=O)N[C@@H](CC(C)C)C(=O)N1CCC[C@H]1C(=O)N1CCC[C@H]1C(=O)N1CCC[C@H]1C(=O)N[C@@H](CCCNC(=N)N)C(=O)N[C@@H](CCCNC(=N)N)C(=O)N1CCC[C@H]1C(=O)N[C@@H](Cc1ccccc1)C(=O)N[C@@H](Cc1ccccc1)C(=O)N[C@@H](CCCCN)C(=O)O [[^67Ga]27, [^67Ga]Ga-DOTA-EG2-IPLPPPRRPFFK, metal not drawn] ({DOTA-AEEA}-IPLPPPRRPFFK-OH)', '0.39 %ID/g');

Measured values drawn from paper PMC7795354 for this set.
